- Test system: murine red blood cells (mRBCs)
- cond: mouse, 60 min, 1.95 μg/mL
- Experimental: Thus, the hemolytic activity for these bishydrazones was investigated against murine red blood cells (mRBCs). Murine red blood cells (mRBCs) were prepared by suspending 1 mL of murine blood in 3 mL of PBS prior to centrifugation at 1,000 rpm for 5 min. […] The percentage of hemolysis was calculated using the following equation: % hemolysis=[(absorbance of sample)−(absorbance of blank)]×100/(absorbance of positive control).
value_kind: Percentage of hemolysis (±SDEV) (%)
Give bare numbers, in %.

Consider the following illustrative entries.
>>> experimental_value("Fc1cccc(N/N=C/c2ccc(-c3ccc(/C=N/Nc4cccc(F)c4)cc3)cc2)c1 [Compound 12b]")
0
>>> experimental_value("C(=N\\Nc1ccccc1)/c1ccc(-c2ccc(/C=N/Nc3ccccc3)cc2)cc1")
3.7
>>> experimental_value("COc1ccc(N/N=C/c2ccc(-c3cccc(/C=N/Nc4ccc(OC)cc4)c3)cc2)cc1 [Compound 15a]")
4.5

Record Percentage of hemolysis (±SDEV) for all entries; do not skip any.
1. C(=N\Nc1ccccc1)/c1ccc(-c2cccc(/C=N/Nc3ccccc3)c2)cc1
2. Fc1ccc(N/N=C/c2ccc(-c3cccc(/C=N/Nc4ccc(F)cc4)c3)cc2)cc1 [Compound 17a]

Found:
1: 3.5; 2: 6.0

====

- Tested on: Candida krusei ATCC 6258 (strain I)
- procedure_summary: MIC determination, in vitro antifungal assay (CLSI M27-A3)
- Assay type: cell-based
- cond: MIC-0, 48 h at 35° C.
Would you mind telling me the reported MIC of each entry?
Give bare numbers, in µg/mL.

Fill in MIC for each of the 4 compounds listed.
1. Fc1cccc(N/N=C/c2ccc(-c3ccc(/C=N/Nc4cccc(F)c4)cc3)cc2)c1 [Compound 12b]
2. COc1ccc(N/N=C/c2ccc(-c3ccc(/C=N/Nc4ccc(OC)cc4)cc3)cc2)cc1 [Compound 15b]
3. C/C(=N\Nc1ccc(F)cc1)c1ccc(-c2ccc(/C(C)=N/Nc3ccc(F)cc3)cc2)cc1 [Compound 17c]
4. Fc1ccc(N/N=C/c2ccc(-c3cccc(/C=N/Nc4ccc(F)cc4F)c3)cc2)c(F)c1 [Compound 20a]

Found:
15.6
7.8
1.95
1.95

====

- Tested on: C. albicans ATCC MYA-1237(R) (strain F)
- procedure_summary: MIC determination, in vitro antifungal assay (CLSI M27-A3)
- Format: cell-based, Candida albicans
- cond: Candida albicans, 48 h, MIC-0, 48 h at 35° C., read-out: MIC
Record form. Attribute: MIC. Fill in for each entry.

Known results for compounds:
>>> experimental_value("N=C(N)N/N=C/c1ccc(-c2ccc(/C=N/NC(=N)N)cc2)cc1 [Compound 24b]")
"> 31.3 µg/mL"
>>> experimental_value("Fc1ccc(N/N=C/c2ccc(-c3ccc(/C=N/Nc4ccc(F)cc4)cc3)cc2)cc1 [Compound 17b]")
"7.8 to 15.6 µg/mL"

Below is a list of compounds. For each, state its recorded MIC.
1. Fc1ccccc1N/N=C/c1ccc(-c2ccc(/C=N/Nc3ccccc3F)cc2)cc1 [Compound 10b]
2. Fc1ccc(N/N=C/c2ccc(-c3ccc(/C=N/Nc4ccc(F)cc4F)cc3)cc2)c(F)c1 [Compound 20b]
3. Fc1cccc(N/N=C/c2ccc(-c3ccc(/C=N/Nc4cccc(F)c4)cc3)cc2)c1 [Compound 12b]
4. N#Cc1ccc(N/N=C/c2ccc(-c3ccc(/C=N/Nc4ccc(C#N)cc4)cc3)cc2)cc1 [Compound 13b]
5. COc1ccc(N/N=C/c2ccc(-c3ccc(/C=N/Nc4ccc(OC)cc4)cc3)cc2)cc1 [Compound 15b]
6. Fc1ccc(F)c(N/N=C/c2ccc(-c3cccc(/C=N/Nc4cc(F)ccc4F)c3)cc2)c1 [Compound 21a]
7. COc1ccccc1N/N=C(\C)c1ccc(-c2ccc(/C(C)=N/Nc3ccccc3OC)cc2)cc1 [Compound 9c]
8. C(=N\Nc1ccccc1)/c1ccc(-c2ccc(/C=N/Nc3ccccc3)cc2)cc1 [Compound 7b]

Found:
1: > 31.3 µg/mL; 2: > 31.3 µg/mL; 3: > 31.3 µg/mL; 4: > 31.3 µg/mL; 5: 7.8 to 15.6 µg/mL; 6: > 31.3 µg/mL; 7: > 31.3 µg/mL; 8: > 31.3 µg/mL

For each of the compounds below, note its MIC.
1. COc1ccc(N/N=C(\C)c2ccc(-c3ccc(/C(C)=N/Nc4ccc(OC)cc4)cc3)cc2)cc1 [Compound 15c]
2. Fc1ccccc1N/N=C/c1ccc(-c2cccc(/C=N/Nc3ccccc3F)c2)cc1 [Compound 10a]
3. Fc1ccc(F)c(N/N=C/c2ccc(-c3ccc(/C=N/Nc4cc(F)ccc4F)cc3)cc2)c1 [Compound 21b]
4. Clc1ccc(N/N=C/c2ccc(-c3ccc(/C=N/Nc4ccc(Cl)cc4)cc3)cc2)cc1 [Compound 18b]

Found:
7.8 to 15.6 µg/mL
> 31.3 µg/mL
> 31.3 µg/mL
> 31.3 µg/mL

Lookup: Output MIC of Brc1ccc(N/N=C/c2ccc(-c3ccc(/C=N/Nc4ccc(Br)cc4)cc3)cc2)cc1 [Compound 19b]
Found: > 31.3 µg/mL
